All figures here come from the supplement of paper PMC12632987.

SYSTEM: GABARAPL2, P60520
Sequence (P60520 whole entry, the tested form may be a part): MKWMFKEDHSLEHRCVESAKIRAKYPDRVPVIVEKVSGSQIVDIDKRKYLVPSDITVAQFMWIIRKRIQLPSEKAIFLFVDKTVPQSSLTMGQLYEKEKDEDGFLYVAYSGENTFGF
ASSAY COMMENT: median log2 fold change of GCK-ALFA target abundance (FLAG IP / Myc IP barcode read proportion) (log2 ratio); each designed protein is fused to an ALFA-tag nanobody in HEK293 cells to bring the named protein to FLAG-tagged glucokinase (GCK); Myc marks an untargeted standard; higher = target protein stabilised (more abundant)
ASSAY SETUP: target protein: 3xFLAG-MCP-GCK-ALFA reporter; HEK293 landing pad (RPLP)
Class definitions on median log2 fold change: low: < -0.02; intermediate: ≥ -0.02 and < 0.1; high: ≥ 0.1

BINDER | CLASS ASSIGNMENT
GBRAPL2_64_7409 (protein) PKVHLAIAYEVEEREEDGKKVLVLDATVYVIKDGEITELEAKVVAEQLSETTWLVKLELKKPDGSVIKREEVVEAPWEDVETEMLELVDEAAREAVEEEE | low
GBRAPL2_54_7373 (protein) MTKVLIEATFIAEGTPEELAEVRKVALEELEKLKKELKEKFGAESKISSEEEDGVLSVTVEITTEKENLDEVLDLLEETRERIAERTGRPVSLVIGIKEL | intermediate
GBRAPL2_128_7274 (protein) MKIVEIDIDIKNEEQYELALEVLDRIAANSSPAVADLADAARDLAESAKEEGFDENVSAVDVLSDEDAAELQAIYDEIAAELGEEKVNSVVKLTIDPLEP | low
GBRAPL2_0_7206 (protein) YEAEIEAAKKLTPEEAFKKLKELVKKLAKDTSLSKEELEKILEAIIDLAYEIYKKEKTEEAEEAFDEIVDLAVEAAAKRDPNLAAYIATYGGSKIMEAES | high
GBRAPL2_128_7292 (protein) MKLVEIDLDIKNEEEYELAKKVLTELARESSPAVADLANAALDMVEEAKKDGFKDKYVVADVLSPEDAAELEALFNRLAERYGAEKVRKVIQLEVSDIPP | low
GBRAPL2_0_7262 (protein) MEKVLEEMEKLSIEEAAKLAKEYAEKLKADPSVSPEQFEEAVLALLEVLYKKVKKEKTEKALEIFEEAVDYFTELAAEVDPNLAAYVDSYAGSLIMELEE | high
GBRAPL2_0_7200 (protein) YLEEIEKAKELSPEEAFKKLKELVKELAEDDSISLEELEEILEKIIELAAEKVKETKSEEDLKKFDEIVDLATEAAAKRDPLLAAYIDTYGGSLLIEVEE | high
GBRAPL2_63_7394 (protein) SAARKVLEALLEHAIIDLETAERLEKALEEAKSEEELRKTLVEALLDMIPELTEEEAEELADMLIELAKKSEELLKEAILALQTLSKEEALAKLKALVAE | intermediate

Now consider the entry below.
Returns: class label. Input: GBRAPL2_0_7256 (protein) LEEVLEEMKKLSIEEAAKLAKEYAEKLLADPSVTPEEFLEAIEKLLEVLAEKVKEEKTEEALEIFEEAVDYFTALAAKIDPNLAADVATYGGSLLYEIEE
intermediate
